- Test system: NCI-H460
- method summary: Cytotoxicity against human H460 cells after 72 hrs by MTT assay
- Format: functional, cell-based
- details: NCI-H460, 72 h
The reader will find reported IC50 values listed item by item below.
reported endpoint: IC50 (nM)

input_smiles=CC(C)C[C@H](NC(=O)[C@H](Cc1ccccc1)NC(=O)c1cccc2c1CCCC2)B(O)O measured_value=21.5
input_smiles=CC(C)C[C@H](NC(=O)[C@H](Cc1ccccc1)NC(=O)[C@H]1CCCc2ccccc21)B(O)O measured_value=36
input_smiles=CC(C)C[C@H](NC(=O)[C@H](Cc1ccccc1)NC(=O)c1cnccn1)B(O)O measured_value=115

* * *

- Tested on: A549
- method summary: Cytotoxicity against human A549 cells after 72 hrs by MTT assay
- Type: functional, cell-based
- details: A549, 72 h
Catalogue of molecules with associated IC50
reported endpoint: IC50 (nM)

input_smiles=CC(C)C[C@H](NC(=O)[C@H](Cc1ccccc1)NC(=O)[C@H]1CCCc2ccccc21)B(O)O system_name=A549 measured_value=38.5
input_smiles=CC(C)C[C@H](NC(=O)[C@H](Cc1ccccc1)NC(=O)c1cccc2c1CCCC2)B(O)O system_name=A549 measured_value=40.5
input_smiles=CC(C)C[C@H](NC(=O)[C@H](Cc1ccccc1)NC(=O)c1cnccn1)B(O)O system_name=A549 measured_value=255

* * *

- System: HepG2
- method summary: Cytotoxicity against human HepG2 cells after 72 hrs by MTT assay
- Format: functional, cell-based
- details: HepG2, 72 h
reported endpoint: IC50 (nM)

input_smiles=CC(C)C[C@H](NC(=O)[C@H](Cc1ccccc1)NC(=O)[C@H]1CCCc2ccccc21)B(O)O system_name=HepG2 reported_endpoint=IC50 measured_value=60
input_smiles=CC(C)C[C@H](NC(=O)[C@H](Cc1ccccc1)NC(=O)c1cccc2c1CCCC2)B(O)O system_name=HepG2 reported_endpoint=IC50 measured_value=13.1
input_smiles=CC(C)C[C@H](NC(=O)[C@H](Cc1ccccc1)NC(=O)c1cnccn1)B(O)O system_name=HepG2 reported_endpoint=IC50 measured_value=37.5

* * *

Reported IC50 values for a set of molecules
- Test system: HL-60
- method summary: Cytotoxicity against human HL60 cells after 72 hrs by MTT assay
- Assay type: functional, cell-based
- details: HL-60, 72 h
reported endpoint: IC50 (nM)

molecule="CC(C)C[C@H](NC(=O)[C@H](Cc1ccccc1)NC(=O)c1cnccn1)B(O)O [BORTEZOMIB]" reported_endpoint=IC50 measured_value=5.5
molecule=CC(C)C[C@H](NC(=O)[C@H](Cc1ccccc1)NC(=O)[C@H]1CCCc2ccccc21)B(O)O reported_endpoint=IC50 measured_value=9.55
molecule=CC(C)C[C@H](NC(=O)[C@H](Cc1ccccc1)NC(=O)c1cccc2c1CCCC2)B(O)O reported_endpoint=IC50 measured_value=9.25
